Where do the numbers come from? From patent US20230176070A1.

molecular target: glutathione S-transferase [GST: P08515]; assay: indirect ELISA, GST coated
Sequence (P08515 whole entry): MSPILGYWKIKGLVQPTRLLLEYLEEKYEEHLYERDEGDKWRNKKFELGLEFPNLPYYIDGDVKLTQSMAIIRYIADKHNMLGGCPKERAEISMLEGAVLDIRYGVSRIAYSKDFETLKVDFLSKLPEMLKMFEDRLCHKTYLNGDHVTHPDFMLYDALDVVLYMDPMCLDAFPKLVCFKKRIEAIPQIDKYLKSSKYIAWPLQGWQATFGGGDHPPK
ELISA affinity (LogIC50 (oD450nm)) by entry:
Answer with a bare number; do not write a unit.

G20 (VHH) VHH: DVQLVESGGGLVQAGGSLRLSCAASERTFSRYMLGWFRQAPGKEREFVGVMGWSDSDTYYGDAVKGRFTISRDNVKNTIYLQMKSLKPEDTAVYYCAASAYGSTRNHKLYEYWGQGTQVTVSS ... 2.43

Proceed to the following item.
Field ELISA affinity (LogIC50 (oD450nm)) (entry G12 (VHH) VHH: QVQLVESGGGLVQAGGSLRLSCAASRSTFRINAAGWYRQAPGKERELVARISSGGSTNYADSVKGRFTISRDNAKNTVYLQMNSLKPEDTAVYYCNVPYYREDGYEYDAWGQGTQVTVSS ) reads 4.21
